Assay: Intrinsic clearance in human liver microsomes
Type: ADME
Settings: read-out: CLH
QUANTITY MEASURED: microsomal CLint (µL/min/mg)
Please state the figure in µL/min/mg; there is no need to write the unit.

The compound listed as Cc1cccc2nc(NC(=O)c3cccc(C(F)(F)F)c3)n([C@@H]3CCCCN(C(=O)/C=C/CN(C)C)C3)c12 shows microsomal CLint equal to 49

The compound listed as Cc1cc(C(=O)Nc2nc3cccc(Cl)c3n2[C@@H]2CCCCN(C(=O)/C=C/CN(C)C)C2)ccn1 shows microsomal CLint equal to 34

The compound listed as C=CC(=O)N1CCCC[C@@H](n2c(NC(=O)c3cccc(C(F)(F)F)c3)nc3cccc(C)c32)C1 shows microsomal CLint equal to 83

The compound listed as Cc1cc(C(=O)Nc2nc3cccc(C)c3n2[C@@H]2CCCCN(C(=O)/C=C/CN(C)C)C2)ccn1 shows microsomal CLint equal to 26

The compound listed as Cc1cccc2nc(NC(=O)c3ccnc(C(F)(F)F)c3)n([C@@H]3CCCCN(C(=O)/C=C/CN(C)C)C3)c12 shows microsomal CLint equal to 71

---

For each entry below, report its IC50 value.
Please state the figure in µM; there is no need to write the unit.

Cytochrome P450 2D6 (Homo sapiens, UniProt P10635) data for Cc1cccc2nc(NC(=O)c3cccc(C(F)(F)F)c3)n([C@@H]3CCCCN(C(=O)/C=C/CN(C)C)C3)c12 ; its IC50: 16.7

Cytochrome P450 2D6 (Homo sapiens, UniProt P10635) data for Cc1cccc2nc(NC(=O)c3ccnc(C(F)(F)F)c3)n([C@@H]3CCCCN(C(=O)/C=C/CN(C)C)C3)c12 ; its IC50: 6.1

---

Test: Cmax in Wistar rat at 10 mg/kg, po by liquid chromatography-tandem mass spectrometry
Type: ADME, organism-based
Parameters: dose 10 mg/kg, route oral
Details: in vivo
QUANTITY MEASURED: Cmax (µM)
Please state the figure in µM; there is no need to write the unit.

The molecule listed as Cc1cc(C(=O)Nc2nc3cccc(Cl)c3n2[C@@H]2CCCCN(C(=O)/C=C/CN(C)C)C2)ccn1 [NAZARTINIB] shows Cmax equal to 0.987

---

Test: Oral bioavailability in Wistar rat at 10 mg/kg by liquid chromatography-tandem mass spectrometry
Type: ADME, organism-based
Settings: in vivo
QUANTITY MEASURED: bioavailability
Report as: number unit

The compound listed as Cc1cc(C(=O)Nc2nc3cccc(Cl)c3n2[C@@H]2CCCCN(C(=O)/C=C/CN(C)C)C2)ccn1 shows bioavailability equal to 55%

---

Biological target: Epidermal growth factor receptor (Homo sapiens, UniProt P00533, L858R/T790M)
Sequence (P00533 25-1210 T790M/L858R limits assumed): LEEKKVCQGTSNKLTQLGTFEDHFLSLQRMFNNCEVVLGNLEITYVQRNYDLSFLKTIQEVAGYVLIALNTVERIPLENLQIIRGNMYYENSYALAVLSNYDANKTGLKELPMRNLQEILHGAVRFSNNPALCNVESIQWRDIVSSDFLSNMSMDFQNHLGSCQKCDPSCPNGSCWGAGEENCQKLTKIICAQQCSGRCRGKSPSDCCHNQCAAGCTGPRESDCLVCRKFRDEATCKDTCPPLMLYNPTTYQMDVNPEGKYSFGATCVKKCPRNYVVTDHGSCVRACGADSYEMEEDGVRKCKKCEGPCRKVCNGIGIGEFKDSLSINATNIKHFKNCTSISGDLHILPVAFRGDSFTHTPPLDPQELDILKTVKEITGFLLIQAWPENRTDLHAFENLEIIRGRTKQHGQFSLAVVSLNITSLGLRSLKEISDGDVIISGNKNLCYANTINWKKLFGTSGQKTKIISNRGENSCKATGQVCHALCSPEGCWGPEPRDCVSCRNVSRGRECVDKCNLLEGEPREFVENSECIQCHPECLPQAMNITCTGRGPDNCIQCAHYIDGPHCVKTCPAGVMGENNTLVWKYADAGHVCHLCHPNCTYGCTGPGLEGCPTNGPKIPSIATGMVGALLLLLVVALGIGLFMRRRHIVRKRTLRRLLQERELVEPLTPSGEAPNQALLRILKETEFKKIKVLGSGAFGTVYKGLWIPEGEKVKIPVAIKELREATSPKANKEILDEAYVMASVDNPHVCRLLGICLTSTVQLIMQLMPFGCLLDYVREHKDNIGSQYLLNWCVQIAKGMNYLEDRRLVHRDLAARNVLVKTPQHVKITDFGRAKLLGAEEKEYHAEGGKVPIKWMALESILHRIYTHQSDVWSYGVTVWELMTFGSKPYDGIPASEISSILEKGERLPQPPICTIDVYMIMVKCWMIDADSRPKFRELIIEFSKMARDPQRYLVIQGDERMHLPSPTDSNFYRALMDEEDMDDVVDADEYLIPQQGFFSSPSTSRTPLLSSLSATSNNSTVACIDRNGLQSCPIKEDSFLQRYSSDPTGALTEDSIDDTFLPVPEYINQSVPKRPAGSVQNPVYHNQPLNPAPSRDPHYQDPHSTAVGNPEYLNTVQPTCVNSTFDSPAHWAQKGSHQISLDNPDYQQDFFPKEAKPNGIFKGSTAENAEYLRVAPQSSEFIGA
Test: Inhibition of N-terminal 6x-HIS-tagged human recombinant EGFR (696 to 1022 residues) L858R/T790M mutant expressed in Sf9 cells pre-incubated for 90 mins followed by 10 uM ATP addition by HTRF assay
For each entry below, report its pIC50 value.
Note: pIC50 values are expressed as the negative base-10 logarithm of concentration in M.

The compound listed as O=C(Nc1nc2ccccc2n1[C@H]1CC[C@H](O)CC1)c1cccc(C(F)(F)F)c1 shows pIC50 equal to 6.59

The compound listed as CCOCc1ccc2c(c1)nc(NC(=O)c1cccc(C(F)(F)F)c1)n2[C@H]1CC[C@H](O)CC1 shows pIC50 equal to 6.33

The compound listed as Cc1cccc2c1nc(NC(=O)c1cccc(C(F)(F)F)c1)n2[C@H]1CC[C@H](O)CC1 shows pIC50 equal to 5.86

The compound listed as Cc1cccc2nc(NC(=O)c3cccc(C(F)(F)F)c3)n([C@H]3CC[C@H](O)CC3)c12 shows pIC50 equal to 7.05

The compound listed as Cc1ccc2c(c1)nc(NC(=O)c1cccc(C(F)(F)F)c1)n2[C@H]1CC[C@H](O)CC1 shows pIC50 equal to 6.85

---

Assay: AUC in balb/c mouse at 20 mg/kg, po by liquid chromatography-tandem mass spectrometry
Type: ADME, organism-based
Conditions: in vivo
In plain terms, low AUC, meaning strictly below 3 µM·h, gives MET, and everything else gives NOT MET.

Is AUC strictly under 3 µM·h for the entry Cc1cc(C(=O)Nc2nc3cccc(Cl)c3n2[C@@H]2CCCCN(C(=O)/C=C/CN(C)C)C2)ccn1 ?
NOT MET

Is AUC strictly under 3 µM·h for the entry Cc1cc(C(=O)Nc2nc3cccc(C)c3n2[C@@H]2CCCCN(C(=O)/C=C/CN(C)C)C2)ccn1 ?
NOT MET

Is AUC strictly under 3 µM·h for the entry C=CC(=O)N1CCCC[C@@H](n2c(NC(=O)c3cccc(C(F)(F)F)c3)nc3cccc(C)c32)C1 ?
MET

Is AUC strictly under 3 µM·h for the entry Cc1cccc2nc(NC(=O)c3cccc(C(F)(F)F)c3)n([C@@H]3CCCCN(C(=O)/C=C/CN(C)C)C3)c12 ?
NOT MET

Is AUC strictly under 3 µM·h for the entry Cc1cccc2nc(NC(=O)c3ccnc(C(F)(F)F)c3)n([C@@H]3CCCCN(C(=O)/C=C/CN(C)C)C3)c12 ?
MET

---

Test: AUC in Wistar rat at 3 mg/kg, iv by liquid chromatography-tandem mass spectrometry
Format: ADME, organism-based
Details: in vivo
QUANTITY MEASURED: AUC (µM·h)
Please state the figure in µM·h; there is no need to write the unit.

The compound listed as Cc1cc(C(=O)Nc2nc3cccc(Cl)c3n2[C@@H]2CCCCN(C(=O)/C=C/CN(C)C)C2)ccn1 [NAZARTINIB] shows AUC equal to 6.53

---

Test: AUC in dog at 10 mg/kg, po by liquid chromatography-tandem mass spectrometry
Type: ADME, organism-based, Canis lupus familiaris
Conditions: in vivo
QUANTITY MEASURED: AUC

The compound listed as Cc1cc(C(=O)Nc2nc3cccc(Cl)c3n2[C@@H]2CCCCN(C(=O)/C=C/CN(C)C)C2)ccn1.Cl shows AUC equal to 5.23 µM·h

---

For each entry below, report its IC50 value.
Target: Epidermal growth factor receptor (Homo sapiens)
Test: Inhibition of wild type EGFR phosphorylation in human HaCaT cells incubated for 3 hrs by ELISA method
Assay type: cell-based
Please state the figure in nM; there is no need to write the unit.

Epidermal growth factor receptor (Homo sapiens) data for Cc1cccc2nc(NC(=O)c3ccnc(C(F)(F)F)c3)n([C@@H]3CCCCN(C(=O)/C=C/CN(C)C)C3)c12 ; its IC50: 72

Epidermal growth factor receptor (Homo sapiens) data for Cc1cccc2nc(NC(=O)c3cccc(C(F)(F)F)c3)n([C@@H]3CCCCN(C(=O)/C=C/CN(C)C)C3)c12 ; its IC50: 351

Epidermal growth factor receptor (Homo sapiens) data for Cc1cc(C(=O)Nc2nc3cccc(C)c3n2[C@@H]2CCCCN(C(=O)/C=C/CN(C)C)C2)ccn1 ; its IC50: 68

Epidermal growth factor receptor (Homo sapiens) data for C=CC(=O)N1CCCCC(n2c(NC(=O)c3cccc(C(F)(F)F)c3)nc3cc(C)ccc32)C1 (configuration not stated) ; its IC50: 4330

Epidermal growth factor receptor (Homo sapiens) data for C=CC(=O)N1CCCC[C@@H](n2c(NC(=O)c3cccc(C(F)(F)F)c3)nc3cccc(C)c32)C1 ; its IC50: 250

---

For each entry below, report its pIC50 value.
Target: Epidermal growth factor receptor (Homo sapiens, UniProt P00533, L858R/T790M)
Experiment: Inhibition of EGFR L858R/T790M mutant phosphorylation in human patient derived H1975 cells incubated for 3 hrs by ELISA method
Type: cell-based
Note: pIC50 values are expressed as the negative base-10 logarithm of concentration in M.

The compound listed as C=CC(=O)N(C)c1cccc(-n2c(NC(=O)c3cccc(C(F)(F)F)c3)nc3cc(C)ccc32)c1 shows pIC50 equal to 6.74

The compound listed as C=CC(=O)N1CCCCC(n2c(NC(=O)c3cccc(C(F)(F)F)c3)nc3cc(C)ccc32)C1 (centres undefined) shows pIC50 equal to 8.21

The compound listed as C=CC(=O)Nc1cccc(-n2c(NC(=O)c3cccc(C(F)(F)F)c3)nc3cc(C)ccc32)c1 shows pIC50 equal to 6.87

The compound listed as C=CC(=O)NCCCn1c(NC(=O)c2cccc(C(F)(F)F)c2)nc2cc(C)ccc21 shows pIC50 equal to 6.28

The compound listed as Cc1cc(C(=O)Nc2nc3cccc(C)c3n2[C@@H]2CCCCN(C(=O)/C=C/CN(C)C)C2)ccn1 shows pIC50 equal to 8.68

The compound listed as Cc1cccc2nc(NC(=O)c3ccnc(C(F)(F)F)c3)n([C@@H]3CCCCN(C(=O)/C=C/CN(C)C)C3)c12 shows pIC50 equal to 8.82

The compound listed as C=CC(=O)N1CCCC[C@@H](n2c(NC(=O)c3cccc(C(F)(F)F)c3)nc3cccc(C)c32)C1 shows pIC50 equal to 8.86

The compound listed as Cc1cccc2nc(NC(=O)c3cccc(C(F)(F)F)c3)n([C@@H]3CCCCN(C(=O)/C=C/CN(C)C)C3)c12 shows pIC50 equal to 8.66

The compound listed as C=CC(=O)N1CCCC(n2c(NC(=O)c3cccc(C(F)(F)F)c3)nc3cc(C)ccc32)C1 (centres undefined) shows pIC50 equal to 7.61

Data origin: ChEMBL document CHEMBL3860038
